- ASSAY OVERVIEW: qHTS assay for small molecule agonists of the antioxidant response element (ARE) signaling pathway (AID 651741)
- CONDITION INFO: HepG2 ARE-bla reporter, beta-lactamase FRET ratio, 16 h; series mostly up to 96 µM
Records with an inconclusive call do not appear. Active and inactive are the calls of the source. Calls follow the shape of the dose curve; as a rule, active = well fitted activation curve with a large enough effect in the signal ratio; inconclusive = small, poorly fitted or top-dose-only effect, or effect the other way, or a change in a side signal; inactive = flat fitted curve, though single readings scatter; the % refers to the signal ratio.
Respond only with the outcome that fits, drawn from t (active), f (inactive)

Use these answered entries as a reference point.
C=Cc1ccccc1Cl | f
CCCCCCCCO | f
NC1=NC(S)C2N=CN=C2N1 (configuration not stated) | t
COc1ccc(/C=C/c2cc(OC)cc(=O)o2)cc1 | t
C=CC(=C)CCC=C(C)C | f

# input Tell me the assay call for CCCCOCCO please.
# output f

# input Tell me the assay call for CCCCC(CC)CN (configuration not stated) please.
# output f

# input Tell me the assay call for CCO[Si](CCCN)(OCC)OCC please.
# output f

# input Tell me the assay call for Cc1ccc([N+](=O)[O-])c(C)c1 please.
# output f

# input Tell me the assay call for c1ccc2c(c1)[nH]c1ccccc12 please.
# output f

# input Tell me the assay call for CCCCCCCCCCCCCCC1CO1 (configuration not stated) please.
# output f

# input Tell me the assay call for COc1ccc2nc(N)sc2c1 please.
# output t

# input Tell me the assay call for O=S(=O)(O)c1ccccc1 please.
# output f

# input Tell me the assay call for O=C(O)c1ccc(O)cc1O please.
# output f

# input Tell me the assay call for O=C(O)CCCCCCCCC(=O)O please.
# output f

# input Tell me the assay call for c1ccccc1 please.
# output f

# input Tell me the assay call for CN(C)C=O please.
# output f

---

- Test system: CP217
- ASSAY OVERVIEW: qHTS profiling for inhibitors of Plasmodium falciparum proliferation (AID 504749); also: nearly all actives have a fitted effect of over 60% in size; also: potency is read from the fitted curve at half-maximal effect
- CONDITION INFO: P. falciparum in erythrocytes, SYBR Green DNA, 72 h; series mostly up to 28.7 µM
Inconclusive results are not listed. Active and inactive are the calls of the source. The call rests on the fitted dose curve; in most records, active means well fitted inhibition curve with a large enough effect; inconclusive means small, poorly fitted or top-dose-only effect; inactive means flat fitted curve, though single readings scatter.
RECORDED METRIC: Potency

Below are worked cases with known answers.
CCC(=O)O[C@@H](OP(=O)(CCCCc1ccccc1)CC(=O)N1C[C@H](C2CCCCC2)C[C@H]1C(=O)O)C(C)C (some centres undefined) | inactive
CC1CCC(C(C)C)C(OC(=O)c2ccccc2O)C1 (centres undefined) | inactive
CC(C)CN(C[C@@H](OP(=O)(O)O)[C@H](Cc1ccccc1)NC(=O)O[C@@H]1CCOC1)S(=O)(=O)c1ccc(N)cc1 | inactive
CCC(C)n1ncn(-c2ccc(N3CCN(c4ccc(OCC5COC(Cn6cncn6)(c6ccc(Cl)cc6Cl)O5)cc4)CC3)cc2)c1=O (centres undefined) | inactive
NC1=NC(S)C2N=CN=C2N1 (centres undefined) | inactive

# input Quick one: give measured Potency for C=C[C@]1(C)C[C@@H](OC(=O)CSCCN(CC)CC)[C@]2(C)C(C)CC[C@]3(CCC(=O)[C@H]32)[C@@H](C)[C@@H]1O (some centres undefined)
# output 10 µM (active)

# input Quick one: give measured Potency for Cc1cc(CC(C)CC(C)(C)C)n(O)c(=O)c1 (centres undefined)
# output 2.82 µM (active)

# input Quick one: give measured Potency for CN1CC[C@H](CN2c3ccccc3Sc3ccccc32)C1
# output 11.2 µM (active)
